experimental_target: Clade B BaL gp120 protein (HIV-1 Clade B, BaL)
protocol_notes: BLI (Octet), IgG on anti-hIgG Fc sensor, gp120 analyte, 1:1 fit
pKd by entry:
pKd (log units): -log10 of the concentration in mol/L.

INSERT INTO results (binder, recorded_value) VALUES
  ('Germ23 (antibody, V domains shown) VH: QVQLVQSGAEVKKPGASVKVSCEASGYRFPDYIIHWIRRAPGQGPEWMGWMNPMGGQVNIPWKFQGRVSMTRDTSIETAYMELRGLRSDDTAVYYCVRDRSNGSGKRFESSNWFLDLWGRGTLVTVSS VL: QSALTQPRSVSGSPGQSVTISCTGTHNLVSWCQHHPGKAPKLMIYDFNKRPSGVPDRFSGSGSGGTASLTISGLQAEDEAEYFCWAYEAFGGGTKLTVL', 9.01);

Item CysCV (antibody, V domains shown) VH: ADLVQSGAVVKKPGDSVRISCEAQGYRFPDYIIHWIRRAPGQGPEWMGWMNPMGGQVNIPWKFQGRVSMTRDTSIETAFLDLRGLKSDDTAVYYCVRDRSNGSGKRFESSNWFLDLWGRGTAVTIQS VL: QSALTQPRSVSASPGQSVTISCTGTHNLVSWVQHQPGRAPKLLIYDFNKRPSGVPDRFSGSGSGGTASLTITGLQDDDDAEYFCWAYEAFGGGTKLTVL has what recorded pKd?
9.09

// provenance: patent US20210040184A1
